Cited source for all entries: patent US20260124214A1

- study_target: Human Polθ polymerase domain (aa1820-2590) (Homo sapiens)
- Sequence (O75417 1820-2590): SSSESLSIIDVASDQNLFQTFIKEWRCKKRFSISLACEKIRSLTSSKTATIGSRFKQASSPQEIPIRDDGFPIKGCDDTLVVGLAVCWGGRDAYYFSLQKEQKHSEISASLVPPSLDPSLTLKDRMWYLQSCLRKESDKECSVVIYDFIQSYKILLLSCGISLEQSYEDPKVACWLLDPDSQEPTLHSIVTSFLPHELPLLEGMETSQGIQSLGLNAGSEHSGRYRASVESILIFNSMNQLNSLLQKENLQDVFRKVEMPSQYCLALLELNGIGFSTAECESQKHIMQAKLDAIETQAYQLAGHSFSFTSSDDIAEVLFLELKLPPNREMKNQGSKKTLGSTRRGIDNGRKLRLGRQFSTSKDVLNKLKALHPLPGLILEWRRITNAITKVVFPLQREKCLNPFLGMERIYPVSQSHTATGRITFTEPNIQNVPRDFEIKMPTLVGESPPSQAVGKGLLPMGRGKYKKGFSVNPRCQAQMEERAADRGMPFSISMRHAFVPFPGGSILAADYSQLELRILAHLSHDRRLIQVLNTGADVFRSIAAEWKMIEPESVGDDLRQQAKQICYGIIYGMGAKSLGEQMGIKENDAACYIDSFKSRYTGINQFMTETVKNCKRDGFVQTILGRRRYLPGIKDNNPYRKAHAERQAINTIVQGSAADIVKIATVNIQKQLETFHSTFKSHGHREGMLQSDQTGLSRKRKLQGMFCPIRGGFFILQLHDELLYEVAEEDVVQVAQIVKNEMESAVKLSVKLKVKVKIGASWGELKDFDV
recorded_metric: Ki

Before answering, review these 2 worked examples.
Cc1cc(C(F)(F)F)cc(N2C(=O)C[C@@H]3CN(CCN(C)CCO)c4c(C)cccc4N(C)C(=O)[C@H]32)n1: 5.56 nM
Cc1cc(C(F)(F)F)cc(N2C(=O)C[C@@H]3CN(Cc4cn5c(n4)CNCC5)c4c(C)cccc4N(C)C(=O)[C@H]32)n1: 0.186 nM

The record that follows has no Ki shown yet.
I have this molecule here, Cc1cc(C(F)(F)F)cc(N2C(=O)C[C@@H]3CN(CCN4CCN(C5COC5)CC4)c4c(Cl)cccc4N(C)C(=O)[C@H]32)n1 , and I need its recorded Ki.
1.97 nM
